- testedOn: T1, human GIP receptor (human) (UniProt P48546)
- T1 sequence (looked up): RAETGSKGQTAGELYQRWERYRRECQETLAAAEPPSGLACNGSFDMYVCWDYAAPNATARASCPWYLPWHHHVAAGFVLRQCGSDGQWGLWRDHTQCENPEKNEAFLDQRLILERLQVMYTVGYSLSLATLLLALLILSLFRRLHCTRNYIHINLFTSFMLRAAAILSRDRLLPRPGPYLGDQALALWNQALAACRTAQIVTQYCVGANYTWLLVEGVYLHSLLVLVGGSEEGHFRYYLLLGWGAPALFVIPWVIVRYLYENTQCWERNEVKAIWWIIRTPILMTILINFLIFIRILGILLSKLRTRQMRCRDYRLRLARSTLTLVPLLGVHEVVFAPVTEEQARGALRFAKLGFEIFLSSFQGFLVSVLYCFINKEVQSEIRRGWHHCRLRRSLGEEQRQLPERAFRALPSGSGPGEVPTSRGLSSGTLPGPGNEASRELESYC
- testDetails: cell-based or functional assay
Reported cAMP EC50 values for the following binders.

- binder: "YXEGTXTSDVXIXLDXKAQXKFIXXLIEGGPSSGAPPPS (Y-Aib-EGT-αMeF(2F)-TSDV-Aib-I-αMeL-LD-Orn-K((2-[2-(2-Amino-ethoxy)-ethoxy]-acetyl)2-CO-(CH2)12-CO2H)AQ-Aib-K((2-[2-(2-Amino-ethoxy)-ethoxy]-acetyl)2-CO-(CH2)12-CO2H)FI-(D-Glu)-αMeY-LIEGGPSSGAPPPS-NH2) [Example 386]"
  cAMP EC50, nM: 0.0174
- binder: "YXEGTXTSDXXIXLDXKAQXEFIXXLIKGGPSSGAPPPS (Y-Aib-EGT-αMeF(2F)-TSD-4Pal-Aib-I-αMeL-LD-Orn-K((2-[2-(2-Amino-ethoxy)-ethoxy]-acetyl)-(γ-Glu)-CO-(CH2)12-CO2H)AQ-Aib-EFI-(D-Glu)-αMeY-LIK((2-[2-(2-Amino-ethoxy)-ethoxy]-acetyl)-(γ-Glu)-CO-(CH2)12-CO2H)GGPSSGAPPPS-NH2) [Example 337]"
  cAMP EC50, nM: 0.0151
- binder: "YXEGTXTSDXXIXLDXKAQXEXIXXLIKGGPSSGAPPPS (Y-Aib-EGT-αMeF(2F)-TSD-4Pal-Aib-I-αMeL-LD-Orn-K((2-[2-(2-Amino-ethoxy)-ethoxy]-acetyl)3-(γ-Glu)-CO-(CH2)10-CH3)AQ-Aib-E-αMeF-I-(D-Glu)-αMeY-LIK((2-[2-(2-Amino-ethoxy)-ethoxy]-acetyl)3-(γ-Glu)-CO-(CH2)10-CH3)GGPSSGAPPPS-NH2) [Example 438]"
  cAMP EC50, nM: 0.0157
- binder: "YXEGTXTSDYXIXLDXIAQXKFIXXLIEGGPSSGAPPPSK (Y-Aib-EGT-αMeF(2F)-TSDY-Aib-I-αMeL-LD-Orn-IAQ-Aib-K((2-[2-(2-Amino-ethoxy)-ethoxy]-acetyl)-(γ-Glu)-(10-(4-carboxyphenoxy)decanoyl))FI-(D-Glu)-αMeY-LIEGGPSSGAPPPSK((2-[2-(2-Amino-ethoxy)-ethoxy]-acetyl)-(γ-Glu)-(10-(4-carboxyphenoxy)decanoyl))-NH2) [Example 377]"
  cAMP EC50, nM: 0.0205
- binder: "YXEGTXTSDXXIXLDXKAQXKFIXXLIEGGPSSGAPPPS (Y-Aib-EGT-αMeF(2F)-TSD-4Pal-Aib-I-αMeL-LD-Orn-K((2-[2-(2-Amino-ethoxy)-ethoxy]-acetyl)2-CO-(CH2)12-CO2H)AQ-Aib-K((2-[2-(2-Amino-ethoxy)-ethoxy]-acetyl)2-CO-(CH2)12-CO2H)FI-(D-Glu)-αMeY-LIEGGPSSGAPPPS-NH2) [Example 384]"
  cAMP EC50, nM: 0.0124
- binder: "YXEGTXTSDYXIXLDXKAQXKFIXXLIEGGPSSGAPPPS (Y-Aib-EGT-αMeF(2F)-TSDY-Aib-I-αMeL-LD-Orn-K((2-[2-(2-Amino-ethoxy)-ethoxy]-acetyl)-(γ-Glu)-CO-(CH2)12-CO2H)AQ-Aib-K((2-[2-(2-Amino-ethoxy)-ethoxy]-acetyl)-(γ-Glu)-CO-(CH2)12-CO2H)FI-(D-Glu)-αMeY-LIEGGPSSGAPPPS-NH2) [Example 366]"
  cAMP EC50, nM: 0.0162
- binder: "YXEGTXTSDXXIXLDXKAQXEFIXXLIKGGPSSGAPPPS (Y-Aib-EGT-αMeF(2F)-TSD-4Pal-Aib-I-αMeL-LD-Orn-K((2-[2-(2-Amino-ethoxy)-ethoxy]-acetyl)2-(γ-Glu)-CO-(CH2)12-CO2H)AQ-Aib-EFI-(D-Glu)-αMeY-LIK((2-[2-(2-Amino-ethoxy)-ethoxy]-acetyl)2-(γ-Glu)-CO-(CH2)12-CO2H)GGPSSGAPPPS-NH2) [Example 358]"
  cAMP EC50, nM: 0.0137
- binder: "YXEGTXTSDKSIXLDXKAQXEXIXXLIEGGPSSGAPPPS (Y-Aib-EGT-αMeF(2F)-TSDK((2-[2-(2-Amino-ethoxy)-ethoxy]-acetyl)2-(γ-Glu)-CO-(CH2)10-CH3)SI-αMeL-LD-Orn-K((2-[2-(2-Amino-ethoxy)-ethoxy]-acetyl)2-(γ-Glu)-CO-(CH2)10-CH3)AQ-Aib-E-αMeF-I-(D-Glu)-αMeY-LIEGGPSSGAPPPS-NH2) [Example 293]"
  cAMP EC50, nM: 0.00915
- binder: "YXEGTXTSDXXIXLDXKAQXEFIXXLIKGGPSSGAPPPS (Y-Aib-EGT-αMeF(2F)-TSD-4Pal-Aib-I-αMeL-LD-Orn-K((2-[2-(2-Amino-ethoxy)-ethoxy]-acetyl)2-(10-(4-carboxyphenoxy)decanoyl))AQ-Aib-EFI-(D-Glu)-αMeY-LIK((2-[2-(2-Amino-ethoxy)-ethoxy]-acetyl)2-(10-(4-carboxyphenoxy)decanoyl))GGPSSGAPPPS-NH2) [Example 395]"
  cAMP EC50, nM: 0.0127
- binder: "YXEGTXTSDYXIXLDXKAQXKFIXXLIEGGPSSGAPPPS (Y-Aib-EGT-αMeF(2F)-TSDY-Aib-I-αMeL-LD-Orn-K((2-[2-(2-Amino-ethoxy)-ethoxy]-acetyl)-(γ-Glu)-(10-(4-carboxyphenoxy)decanoyl))AQ-Aib-K((2-[2-(2-Amino-ethoxy)-ethoxy]-acetyl)-(γ-Glu)-(10-(4-carboxyphenoxy)decanoyl))FI-(D-Glu)-αMeY-LIEGGPSSGAPPPS-NH2) [Example 372]"
  cAMP EC50, nM: 0.0112
- binder: "YXEGTXTSDXXIXLDXKAQXEFIXXLIEGGPSSGAPPPSK (Y-Aib-EGT-αMeF(2F)-TSD-4Pal-Aib-I-αMeL-LD-Orn-K((2-[2-(2-Amino-ethoxy)-ethoxy]-acetyl)3-(γ-Glu)-CO-(CH2)10-CH3)AQ-Aib-EFI-(D-Glu)-αMeY-LIEGGPSSGAPPPSK((2-[2-(2-Amino-ethoxy)-ethoxy]-acetyl)3-(γ-Glu)-CO-(CH2)10-CH3)-NH2) [Example 424]"
  cAMP EC50, nM: 0.00502
- binder: "YXEGTXTSDXXIXLDXKAQXXFIXXLIKGGPSSGAPPPS (Y-Aib-EGT-αMeF(2F)-TSD-4Pal-Aib-I-αMeL-LD-Orn-K((2-[2-(2-Amino-ethoxy)-ethoxy]-acetyl)2-(γ-Glu)-CO-(CH2)10-CH3)AQ-Aib-Orn-FI-(D-Glu)-αMeY-LIK((2-[2-(2-Amino-ethoxy)-ethoxy]-acetyl)2-(γ-Glu)-CO-(CH2)10-CH3)GGPSSGAPPPS-NH2) [Example 414]"
  cAMP EC50, nM: 0.00961
- binder: "YXEGTXTSDXXIXLDXQAQXKFIXXLIKGGPSSGAPPPS (Y-Aib-EGT-αMeF(2F)-TSD-4Pal-Aib-I-αMeL-LD-Orn-QAQ-Aib-K((2-[2-(2-Amino-ethoxy)-ethoxy]-acetyl)2-(γ-Glu)-CO-(CH2)12-CO2H)FI-(D-Glu)-αMeY-LIK((2-[2-(2-Amino-ethoxy)-ethoxy]-acetyl)2-(γ-Glu)-CO-(CH2)12-CO2H)GGPSSGAPPPS-NH2) [Example 488]"
  cAMP EC50, nM: 0.0115
- binder: "YXEGTXTSDYXIXLDXKAQXKFIXXLIXGGPSSGAPPPS (Y-Aib-EGT-αMeF(2F)-TSDY-Aib-I-αMeL-LD-Orn-K((2-[2-(2-Amino-ethoxy)-ethoxy]-acetyl)2-(γ-Glu)-(10-(4-carboxyphenoxy)decanoyl))AQ-Aib-K((2-[2-(2-Amino-ethoxy)-ethoxy]-acetyl)2-(γ-Glu)-(10-(4-carboxyphenoxy)decanoyl))FI-(D-Glu)-αMeY-LI-Orn-GGPSSGAPPPS-NH2) [Example 409]"
  cAMP EC50, nM: 0.00928
